The measured values listed here are drawn from the supplement of paper PMC8967900.

- Test system: HAL-01
- protocol notes: selective drug sensitivity score (sDSS, relative to normal bone marrow) (sDSS (score)); higher = more potent and effective on the cell line relative to normal bone marrow cells;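 also: ALL cell lines in 384-well plates, five doses spanning 10,000-fold, each plate scaled between vehicle and 100 µmol/L benzalkonium chloride controls, sDSS an adapted area-under-curve metric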
- settings: 72 h
Rule: selective drug sensitivity score of 0.7 or more gives Fulfilled; anything lower gives Not fulfilled.

Worked examples follow.
Entry COc1cc(C)c(/C=C/C(C)=C/C=C/C(C)=C/C(=O)O)c(C)c1C [Acitretin] (top concentration 10000 nM) : is its selective drug sensitivity score no less than 0.7?
Not fulfilled

Entry CN(c1ncccc1CNc1nc(Nc2ccc3c(c2)CC(=O)N3)ncc1C(F)(F)F)S(C)(=O)=O (top concentration 10000 nM) : is its selective drug sensitivity score no less than 0.7?
Not fulfilled

Entry O=C(/C=C/c1cccc(S(=O)(=O)Nc2ccccc2)c1)NO [Belinostat] (top concentration 10000 nM) : is its selective drug sensitivity score no less than 0.7?
Fulfilled

Entry CC(=O)c1cc2c(o1)C(=O)c1ccccc1C2=O [Napabucasin] (top concentration 20000 nM) : is its selective drug sensitivity score no less than 0.7?
Not fulfilled

Entry Nc1ccn([C@@H]2O[C@H](CO)[C@@H](O)C2(F)F)c(=O)n1 [Gemcitabine] (top concentration 1000 nM) : is its selective drug sensitivity score no less than 0.7?
Fulfilled

Entry CC[C@@]1(O)C(=O)OCc2c1cc1n(c2=O)Cc2cc3c(CN(C)C)c(O)ccc3nc2-1 [Topotecan] (top concentration 10000 nM) : is its selective drug sensitivity score no less than 0.7?
Fulfilled

Entry CC[C@H](CO)Nc1nc(NCc2ccccc2)c2ncn(C(C)C)c2n1 [Seliciclib] (top concentration 10000 nM) : is its selective drug sensitivity score no less than 0.7?
Not fulfilled

Entry O=C(O)c1ccc(CN2CCC(CN[C@@H]3C[C@H]3c3ccccc3)CC2)cc1 (top concentration 100000 nM) : is its selective drug sensitivity score no less than 0.7?
Not fulfilled

Entry Cc1[nH]nc(C(F)(F)F)c1Cc1sc2c(c1C(=O)N1C[C@](C)(O)CO1)c(=O)n(C)c(=O)n2C(C)C [AZD3965] (top concentration 1000 nM) : is its selective drug sensitivity score no less than 0.7?
Fulfilled

Entry CC[C@@H]1C(=O)OC[C@@H]1Cc1cncn1C [Pilocarpine] (top concentration 40000 nM) : is its selective drug sensitivity score no less than 0.7?
Not fulfilled

More entries:
Entry Cn1cc(-c2ccc(F)c(C(F)(F)F)c2)nc1C1CCN(c2ncnc3[nH]ncc23)CC1 (top concentration 10000 nM) : is its selective drug sensitivity score no less than 0.7?
Fulfilled

Entry CN1CC[C@@H](NC(=O)Nc2ccc(C#N)cc2)C[C@@H]1c1nc2ccccc2[nH]1 [Glasdegib] (top concentration 1000 nM) : is its selective drug sensitivity score no less than 0.7?
Not fulfilled

Entry CC(C)Oc1ccc(-c2nn([C@@H](C)c3oc4ccc(F)cc4c(=O)c3-c3cccc(F)c3)c3ncnc(N)c23)cc1F [TGR-1202] (top concentration 2500 nM) : is its selective drug sensitivity score no less than 0.7?
Fulfilled

Entry Nc1ccccc1NC(=O)c1ccc(CNC(=O)OCc2cccnc2)cc1 [Entinostat] (top concentration 10000 nM) : is its selective drug sensitivity score no less than 0.7?
Fulfilled

----------
- Tested on: TANOUE
- protocol notes: selective drug sensitivity score (sDSS, relative to normal bone marrow) (sDSS (score)); higher = more potent and effective on the cell line relative to normal bone marrow cells
- settings: 72 h
Measured selective drug sensitivity score, listed per entry for reference.
Please state the value as a number alone, without comment.

Entry O=C(Nc1cnn2ccc(N3CCC[C@@H]3c3cc(F)ccc3F)nc12)N1CC[C@H](O)C1 [Larotrectinib] (top concentration 1000 nM) ; assay system TANOUE; selective drug sensitivity score recorded at -0.62

Entry CN[C@@H](C)C(=O)N[C@H](C(=O)N1CCC[C@H]1c1nc(C(=O)c2ccc(F)cc2)cs1)C1CCCCC1 [NVP-LCL161] (top concentration 25000 nM) ; assay system TANOUE; selective drug sensitivity score recorded at -5.82

Entry CC(O)(CS(=O)(=O)c1ccc(F)cc1)C(=O)Nc1ccc(C#N)c(C(F)(F)F)c1 (stereo unspecified) [Bicalutamide] (top concentration 10000 nM) ; assay system TANOUE; selective drug sensitivity score recorded at -1.28

Entry CC(C)[C@@H](CS(=O)(=O)C(C)C)N1C(=O)[C@@](C)(CC(=O)O)C[C@H](c2cccc(Cl)c2)[C@H]1c1ccc(Cl)cc1 [AMG-232] (top concentration 10000 nM) ; assay system TANOUE; selective drug sensitivity score recorded at -10.5

Entry Cc1ccc(NS(=O)(=O)c2cccc(C#N)c2)c2[nH]cc(C#N)c12 [E7820] (top concentration 50000 nM) ; assay system TANOUE; selective drug sensitivity score recorded at -6.28

--- query ---
Entry CC(C)(C)c1cc(NC(=O)Nc2ccc(Oc3ccnc4[nH]c(=O)cnc34)cc2F)n(-c2ccccc2)n1 (top concentration 25000 nM) ; assay system TANOUE; selective drug sensitivity score recorded at -5.68
